Form field: growth (one value per entry).
- Tested on: A498 renal
- test: NCI-60 one-dose screen, 48 h (100 = growth as untreated, 0 = no growth, -100 = all killed)
- particulars: 10 µM unless noted
Compounds without any hit were thinned out: in the full panel of roughly 83,000, 20% have a hit. The source made the active and inactive calls. Rule for the calls: active = growth percent below 10; inactive = the rest.

Consider the reported growth for these compounds:
{"columns": ["compound", "observed"],
 "data": [
  ["CC1=CC(=NN=c2cc(C)n([O-])c(C)c2)C=C(C)[N+]1=O", "124% (inactive)"],
  ["CSc1nc(NCc2ccccc2)c(C#N)c(-c2cccc([N+](=O)[O-])c2)n1", "66.1% (inactive)"],
  ["Cn1c(NCCc2ccc(O)c(O)c2)nc2c1c(=O)n(Cc1ccc(Cl)c(Cl)c1)c(=O)n2C", "98.4% (inactive)"],
  ["C=CC(=O)Nc1cccc(-c2nc(SC)nc(Nc3cccc(OC)c3)c2C#N)c1", "9.73% (active)"],
  ["CCC([N+](=O)[O-])S(=O)(=O)c1ccc(C)cc1 (stereo unspecified)", "103% (inactive)"]
]}

Query: What growth value was documented for this compound, `NC(=NCCCOc1ccc(Cl)cc1)Nc1ccc(Cl)cc1` ?
Result: -12% (active)

Query: What growth value was documented for this compound, `COc1ccc(C(=O)COc2ccc(/C=C3\Oc4ccc(OC)cc4C3=O)cc2)cc1` ?
Result: 98.9% (inactive)

Query: What growth value was documented for this compound, `Clc1ccc2c(NCCCCNc3nc(N4CCOCC4)nc4ccccc34)ccnc2c1` ?
Result: 90.4% (inactive)

Query: What growth value was documented for this compound, `CCNC(=O)Oc1ccc(/C(=C(\C)c2ccc(Cl)cc2)c2ccc(OCCN3CCCCC3)cc2)cc1` ?
Result: 83.6% (inactive)

Query: What growth value was documented for this compound, `COc1ccc2[nH]cc(-c3noc(C(=O)c4cn(C)c5ccc(F)cc45)n3)c2c1` ?
Result: 95.8% (inactive)

Query: What growth value was documented for this compound, `COc1cccc(-c2nn(C(C)(C)C)cc2-c2ccnc(NCCCNS(=O)(=O)c3cccc4ccccc34)c2)c1` ?
Result: 76.9% (inactive)

Query: What growth value was documented for this compound, `N#CN1CC[C@H](C(=O)Nc2cc3cc(C(N)=O)ccc3cn2)C1` ?
Result: -34.4% (active)
